- Test system: MDA-MB-231 multicell spheroids, viability
- protocol.summary: Anticancer human tumor MDA-MB-231 cell line growth inhibition [PI3K]
- stated.conditions: second compound 0.316 µM; first compound 0.01 µM; active compounds read low
measure.name: viability, T/C (%)
Report as a plain number; the unit % is understood.

Below, each entry is followed by its recorded viability, T/C result.
compound	target.or.test.system	viability, T/C, %
CC(C)n1nc(-c2ccc3oc(N)nc3c2)c2c(N)ncnc21 + CC(Nc1ncnc2nc[nH]c12)c1cc2cccc(Cl)c2c(=O)n1-c1ccccc1	MDA-MB-231 multicell spheroids, viability	72.8
Cn1ncnc1[C@H]1c2n[nH]c(=O)c3cc(F)cc(c23)N[C@@H]1c1ccc(F)cc1 + CC(Nc1ccc2c(c1)OCCn1cc(N3C(=O)OCC3C(F)F)nc1-2)C(N)=O	MDA-MB-231 multicell spheroids, viability	56.9
Cn1ncnc1[C@H]1c2n[nH]c(=O)c3cc(F)cc(c23)N[C@@H]1c1ccc(F)cc1 + CC(Nc1ncnc2nc[nH]c12)c1cc2cccc(Cl)c2c(=O)n1-c1ccccc1	MDA-MB-231 multicell spheroids, viability	93.3
CC(=O)c1c(C)c2cnc(Nc3ccc(N4CCNCC4)cn3)nc2n(C2CCCC2)c1=O + COc1c(OCCCN2CCOCC2)ccc2c3n(c(=NC(=O)c4cnc(N)nc4)nc12)CCN3	MDA-MB-231 multicell spheroids, viability	27.3
Cn1ncnc1[C@H]1c2n[nH]c(=O)c3cc(F)cc(c23)N[C@@H]1c1ccc(F)cc1 + Cc1nc(NC(=O)N2CCCC2C(N)=O)sc1-c1ccnc(C(C)(C)C(F)(F)F)c1	MDA-MB-231 multicell spheroids, viability	64.1

Query: Dear colleague, I am looking for the recorded viability, T/C of the following compound: CCN1CCN(Cc2ccc(Nc3ncc(F)c(-c4cc(F)c5nc(C)n(C(C)C)c5c4)n3)nc2)CC1 + COc1c(OCCCN2CCOCC2)ccc2c3n(c(=NC(=O)c4cnc(N)nc4)nc12)CCN3
Reply: 27.2

Query: Dear colleague, I am looking for the recorded viability, T/C of the following compound: CC(=O)c1c(C)c2cnc(Nc3ccc(N4CCNCC4)cn3)nc2n(C2CCCC2)c1=O + Cc1nc(NC(=O)N2CCCC2C(N)=O)sc1-c1ccnc(C(C)(C)C(F)(F)F)c1
Reply: 60.9

Query: Dear colleague, I am looking for the recorded viability, T/C of the following compound: CC(=O)c1c(C)c2cnc(Nc3ccc(N4CCNCC4)cn3)nc2n(C2CCCC2)c1=O + CC(Nc1ccc2c(c1)OCCn1cc(N3C(=O)OCC3C(F)F)nc1-2)C(N)=O
Reply: 48.2

Query: Dear colleague, I am looking for the recorded viability, T/C of the following compound: CC(C)n1nc(-c2ccc3oc(N)nc3c2)c2c(N)ncnc21 + CC(Nc1ccc2c(c1)OCCn1cc(N3C(=O)OCC3C(F)F)nc1-2)C(N)=O
Reply: 41.7

Query: Dear colleague, I am looking for the recorded viability, T/C of the following compound: CC(C)n1nc(-c2ccc3oc(N)nc3c2)c2c(N)ncnc21 + Cc1nc(NC(=O)N2CCCC2C(N)=O)sc1-c1ccnc(C(C)(C)C(F)(F)F)c1
Reply: 50.6

====

- Test system: MDA-MB-231 multicell spheroids, viability
- protocol.summary: Anticancer human tumor MDA-MB-231 cell line growth inhibition [PI3K]
- stated.conditions: second compound 0.0316 µM; first compound 0.949 µM; active compounds read low
measure.name: viability, T/C (%)
Report as a plain number; the unit % is understood.

Below, each entry is followed by its recorded viability, T/C result.
compound	viability, T/C, %
Cn1cnc2c(F)c(Nc3ccc(Br)cc3Cl)c(C(=O)NOCCO)cc21 + CC(Nc1ccc2c(c1)OCCn1cc(N3C(=O)OCC3C(F)F)nc1-2)C(N)=O	43.2
Cn1cnc2c(F)c(Nc3ccc(Br)cc3Cl)c(C(=O)NOCCO)cc21 + COc1c(OCCCN2CCOCC2)ccc2c3n(c(=NC(=O)c4cnc(N)nc4)nc12)CCN3	28.8
Cn1cnc2c(F)c(Nc3ccc(Br)cc3Cl)c(C(=O)NOCCO)cc21 + CC(Nc1ncnc2nc[nH]c12)c1cc2cccc(Cl)c2c(=O)n1-c1ccccc1	44.5

Now consider a different compound.
Query: Dear colleague, I am looking for the recorded viability, T/C of the following compound: Cn1cnc2c(F)c(Nc3ccc(Br)cc3Cl)c(C(=O)NOCCO)cc21 + Cc1nc(NC(=O)N2CCCC2C(N)=O)sc1-c1ccnc(C(C)(C)C(F)(F)F)c1
Reply: 45.2

====

Below is a list of entries, each paired with its recorded viability, T/C value.
- System: MDA-MB-231 multicell spheroids, viability
- protocol.summary: Anticancer human tumor MDA-MB-231 cell line growth inhibition [PI3K];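 also: spheroids exposed to agents for seven days before reading; percent of vehicle control luminescence with DMSO treated spheroids as 100%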
- stated.conditions: second compound 0.316 µM; first compound 0.1 µM; active compounds read low

Below, each entry is followed by its recorded viability, T/C result.
compound	viability, T/C
CC(Cn1ccc(-c2ccc(C#N)c(Cl)c2)n1)NC(=O)c1cc(C(C)O)[nH]n1 (stereo not given) + CC(Nc1ccc2c(c1)OCCn1cc(N3C(=O)OCC3C(F)F)nc1-2)C(N)=O	63.3%
Cn1nccc1Nc1nccc(-c2ccn(C(CO)c3ccc(Cl)c(F)c3)c(=O)c2)n1 (stereo not given) + CC(Nc1ccc2c(c1)OCCn1cc(N3C(=O)OCC3C(F)F)nc1-2)C(N)=O	48.5%

Query: Dear colleague, I am looking for the recorded viability, T/C of the following compound: C#Cc1c(F)ccc2cc(O)cc(-c3ncc4c(N5CC6CCC(C5)N6)nc(OCC56CCCN5CC(F)C6)nc4c3F)c12 (stereo not given) + CC(Nc1ncnc2nc[nH]c12)c1cc2cccc(Cl)c2c(=O)n1-c1ccccc1
Reply: 89%

Query: Dear colleague, I am looking for the recorded viability, T/C of the following compound: C#Cc1c(F)ccc2cc(O)cc(-c3ncc4c(N5CC6CCC(C5)N6)nc(OCC56CCCN5CC(F)C6)nc4c3F)c12 (stereo not given) + CC(Nc1ccc2c(c1)OCCn1cc(N3C(=O)OCC3C(F)F)nc1-2)C(N)=O
Reply: 67.1%

Query: Dear colleague, I am looking for the recorded viability, T/C of the following compound: Cn1ncc(Cl)c1-c1cc(C(=O)NC(CN)Cc2cccc(F)c2)sc1Cl (stereo not given) + Cc1nc(NC(=O)N2CCCC2C(N)=O)sc1-c1ccnc(C(C)(C)C(F)(F)F)c1
Reply: 80.8%

====

- Test system: MDA-MB-231 multicell spheroids, viability
- protocol.summary: Anticancer human tumor MDA-MB-231 cell line growth inhibition [PI3K];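 also: spheroids exposed to agents for seven days before reading; percent of vehicle control luminescence with DMSO treated spheroids as 100%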
- stated.conditions: second compound 0.1 µM; first compound 10 µM; active compounds read low
measure.name: viability, T/C (%)
Report as a plain number; the unit % is understood.

Query: Dear colleague, I am looking for the recorded viability, T/C of the following molecule: CC(Cn1ccc(-c2ccc(C#N)c(Cl)c2)n1)NC(=O)c1cc(C(C)O)[nH]n1 (stereo not drawn) + CC(Nc1ncnc2nc[nH]c12)c1cc2cccc(Cl)c2c(=O)n1-c1ccccc1
Reply: 78.4

Query: Dear colleague, I am looking for the recorded viability, T/C of the following molecule: CCCS(=O)(=O)Nc1ccc(F)c(C(=O)c2c[nH]c3ncc(-c4ccc(Cl)cc4)cc23)c1F + CC(Nc1ncnc2nc[nH]c12)c1cc2cccc(Cl)c2c(=O)n1-c1ccccc1
Reply: 34.5

====

- Tested on: MDA-MB-231 multicell spheroids, viability
- protocol.summary: Anticancer human tumor MDA-MB-231 cell line growth inhibition [PI3K];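 also: spheroids exposed to agents for seven days before reading; percent of vehicle control luminescence with DMSO treated spheroids as 100%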
- stated.conditions: second compound 0.316 µM; first compound 0.1 µM; active compounds read low
Could you mark each record Yes if its viability, T/C falls strictly under 80%, and No if it equals or exceeds it?

molecule	assigned.category
C#Cc1c(F)ccc2cc(O)cc(-c3ncc4c(N5CC6CCC(C5)N6)nc(OCC56CCCN5CC(F)C6)nc4c3F)c12 (stereo not given) + Cc1nc(NC(=O)N2CCCC2C(N)=O)sc1-c1ccnc(C(C)(C)C(F)(F)F)c1	No
Cn1ncnc1[C@H]1c2n[nH]c(=O)c3cc(F)cc(c23)N[C@@H]1c1ccc(F)cc1 + COc1c(OCCCN2CCOCC2)ccc2c3n(c(=NC(=O)c4cnc(N)nc4)nc12)CCN3	Yes
CC(Cn1ccc(-c2ccc(C#N)c(Cl)c2)n1)NC(=O)c1cc(C(C)O)[nH]n1 (stereo not given) + CC(Nc1ncnc2nc[nH]c12)c1cc2cccc(Cl)c2c(=O)n1-c1ccccc1	No

Query: Take the molecule CCCS(=O)(=O)Nc1ccc(F)c(C(=O)c2c[nH]c3ncc(-c4ccc(Cl)cc4)cc23)c1F + COc1c(OCCCN2CCOCC2)ccc2c3n(c(=NC(=O)c4cnc(N)nc4)nc12)CCN3 and say whether its viability, T/C is less than 80%.
Reply: Yes

====

Below is a list of entries, each paired with its recorded viability, T/C value.
- Test system: MDA-MB-231 multicell spheroids, viability
- protocol.summary: Anticancer human tumor MDA-MB-231 cell line growth inhibition [PI3K];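 also: spheroids exposed to agents for seven days before reading; percent of vehicle control luminescence with DMSO treated spheroids as 100%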
- stated.conditions: second compound 0.00316 µM; first compound 0.316 µM; active compounds read low
Report as a plain number; the unit % is understood.

molecule	unit.descriptor	viability, T/C
C[C@@H](NC(=O)c1ncnc(N)c1Cl)c1ncc(C(=O)Nc2cc(C(F)(F)F)c(Cl)cn2)s1 + COc1c(OCCCN2CCOCC2)ccc2c3n(c(=NC(=O)c4cnc(N)nc4)nc12)CCN3	%	100

Query: Dear colleague, I am looking for the recorded viability, T/C of the following molecule: Cn1ncc(Cl)c1-c1cc(C(=O)NC(CN)Cc2cccc(F)c2)sc1Cl (stereo not given) + COc1c(OCCCN2CCOCC2)ccc2c3n(c(=NC(=O)c4cnc(N)nc4)nc12)CCN3
Reply: 84.5

Query: Dear colleague, I am looking for the recorded viability, T/C of the following molecule: CNC(=O)c1ccc(N2C(=S)N(c3ccc(C#N)c(C(F)(F)F)c3)C(=O)C2(C)C)cc1F + CC(Nc1ccc2c(c1)OCCn1cc(N3C(=O)OCC3C(F)F)nc1-2)C(N)=O
Reply: 103

Query: Dear colleague, I am looking for the recorded viability, T/C of the following molecule: CCCS(=O)(=O)Nc1ccc(F)c(C(=O)c2c[nH]c3ncc(-c4ccc(Cl)cc4)cc23)c1F + CC(Nc1ccc2c(c1)OCCn1cc(N3C(=O)OCC3C(F)F)nc1-2)C(N)=O
Reply: 100

Query: Dear colleague, I am looking for the recorded viability, T/C of the following molecule: CC(Cn1ccc(-c2ccc(C#N)c(Cl)c2)n1)NC(=O)c1cc(C(C)O)[nH]n1 (stereo not given) + CC(Nc1ccc2c(c1)OCCn1cc(N3C(=O)OCC3C(F)F)nc1-2)C(N)=O
Reply: 104
